- Test System: T1, MUT-4N (Caenorhabditis elegans, UniProt Q09487 172-535, N318A;H319A;Q322A)
- T1 sequence: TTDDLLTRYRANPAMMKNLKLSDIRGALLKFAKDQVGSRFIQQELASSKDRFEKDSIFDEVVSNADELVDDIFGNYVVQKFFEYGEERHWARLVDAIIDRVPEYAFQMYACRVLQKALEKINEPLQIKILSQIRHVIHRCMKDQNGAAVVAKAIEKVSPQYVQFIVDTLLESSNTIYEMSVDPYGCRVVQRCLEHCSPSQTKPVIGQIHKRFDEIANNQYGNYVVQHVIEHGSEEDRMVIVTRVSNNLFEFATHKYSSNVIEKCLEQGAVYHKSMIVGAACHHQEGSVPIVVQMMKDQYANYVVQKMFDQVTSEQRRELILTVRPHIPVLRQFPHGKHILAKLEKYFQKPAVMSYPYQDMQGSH
- Assay Name: fluorescence polarization
pKd: −log10 of the molar value.

# Binder, pKd
measured = [
    ("UGUAGAUA (ssRNA) [PBE-5G FAM]", 6.75),
    ("UGUACAUA (ssRNA) [PBE-5C FAM]", 6.46),
    ("UGUAUAUA (ssRNA) [PBE-5U FAM]", 6.51),
    ("UGUAAAUA (ssRNA) [PBE-5A FAM]", 6.79),
]
